Tested on: ATP;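 also: ATP exposure 15 min at 22 °C before imaging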
EXPERIMENTAL PROTOCOL: switch fluorescence ratio, 500 uM ATP over buffer (Cy3 cluster intensity, sum of 5 cycles each) (fold (ratio)); higher = stronger signal-on switching upon ATP binding; sequences stand for … in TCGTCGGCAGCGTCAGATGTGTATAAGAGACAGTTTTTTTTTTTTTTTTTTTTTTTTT…TC
PROTOCOL CONDITIONS: aptamer strand: ATP DNA aptamer (quencher-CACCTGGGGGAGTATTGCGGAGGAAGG + anchor), 100 nM annealed; ATP concentration: 500 uM

RECORD SEQUENCE	switch fluorescence ratio
TTAAGAGACG	1.06
CCGGGCGGAT	1.02
GAGGTGCCTA	0.991
GGGGTATGTA	0.987
TAGCAAAGAA	1.03
GGGGGGGCTT	0.998
CGAGTGTGGG	1.01
ATGTTTTCGG	0.99
GATACATAAA	1.04
GCAGTGCGCC	1.2
GGGGTCGTCT	1.02
CTCACCATGA	1.03
TGCGTCGGTG	1.03
GGGTAAGCCC	0.987
GATTATTAGC	1
CCTGGGGGCA	1.04
ATGTCGGCTT	1.03
ATATATGTAA	0.994
GGAATCTTTT	1.08
TGGGGGGAAC	1.02
